- System: Human plasma (intrinsic coagulation cascade)
- experiment: Activated Partial Thromboplastin Time (aPTT) Assay
- assay_conditions: concentration that causes a 50% (1.5×) increase of clot time over vehicle
Quick list: aPTT (1.5x) per entry.
Write the number in µM without appending the unit.

Solved entries:
{"compound": "O=C(O)c1ccc(NC(=O)C(CC2CC2F)c2ccc(-c3c(C(F)F)ccc(Cl)c3F)c[n+]2[O-])cc1 (single isomer, unassigned) [Example 93]", "test_system": "Human plasma (intrinsic coagulation cascade)", "aPTT (1.5x) [µM]": 0.8}
{"compound": "O=C(O)c1ccc(NC(=O)C(CC2CC2C(F)(F)F)c2ccc(-c3c(OC(F)F)ccc(Cl)c3F)c[n+]2[O-])cc1 (single isomer, unassigned) [Example 109]", "test_system": "Human plasma (intrinsic coagulation cascade)", "aPTT (1.5x) [µM]": 0.76}
{"compound": "O=C(O)c1ccc(NC(=O)[C@@H](CC2CCC2)c2ccc(-c3c(C(F)F)ccc(Cl)c3F)c[n+]2[O-])cc1 (mixture of isomers) [Example 4]", "test_system": "Human plasma (intrinsic coagulation cascade)", "aPTT (1.5x) [µM]": 0.55}
{"compound": "O=C(O)c1ccc(NC(=O)C(C[C@H]2CC[C@H](O)CC2)c2ccc(-c3c(OC(F)F)ccc(Cl)c3F)c[n+]2[O-])cc1 (single isomer, unassigned)", "test_system": "Human plasma (intrinsic coagulation cascade)", "aPTT (1.5x) [µM]": 0.39}
{"compound": "O=C(O)c1ccc(NC(=O)C(CC2CC(F)C2)c2ccc(-c3c(C(F)F)ccc(Cl)c3F)c[n+]2[O-])cc1 (single isomer, unassigned)", "test_system": "Human plasma (intrinsic coagulation cascade)", "aPTT (1.5x) [µM]": 0.58}
{"compound": "O=C(O)c1ccc(NC(=O)C(CC2CC2C(F)(F)F)c2ccc(-c3c(OC(F)F)ccc(Cl)c3F)c[n+]2[O-])cc1 (single isomer, unassigned) [Example 107]", "test_system": "Human plasma (intrinsic coagulation cascade)", "aPTT (1.5x) [µM]": 1.74}
{"compound": "CC1CC1C[C@@H](C(=O)Nc1ccc(C(=O)O)cc1)c1ccc(-c2c(C(F)(F)F)ccc(Cl)c2F)c[n+]1[O-] (single isomer, unassigned)", "test_system": "Human plasma (intrinsic coagulation cascade)", "aPTT (1.5x) [µM]": 1.86}
{"compound": "O=C(O)c1ccc(NC(=O)C(CC2CC2)c2ccc(-c3c(C(F)(F)F)ccc(Cl)c3F)c[n+]2[O-])cc1 (single isomer, unassigned)", "test_system": "Human plasma (intrinsic coagulation cascade)", "aPTT (1.5x) [µM]": 2.68}

For C[C@]1(O)CC[C@H](CC(C(=O)Nc2ccc(C(=O)O)cc2)c2ccc(-c3c(OC(F)F)ccc(Cl)c3F)c[n+]2[O-])CC1 (single isomer, unassigned) , write its aPTT (1.5x). 0.55

For CC1(O)CC(CC(C(=O)Nc2ccc(C(=O)O)cc2)c2ccc(-c3c(C(F)F)ccc(Cl)c3F)c[n+]2[O-])C1 (single isomer, unassigned) [Example 83] , write its aPTT (1.5x). 0.62

For CC1C(C)C1CC(C(=O)Nc1ccc(C(=O)O)cc1)c1ccc(-c2c(OC(F)F)ccc(Cl)c2F)c[n+]1[O-] (single isomer, unassigned) [Example 98] , write its aPTT (1.5x). 0.72
